# ASSAYED TARGET: HLA-A*02:01
# ASSAY METHOD TEXT: IEDB peptide-MHC binding, purified MHC/competitive/fluorescence; filed as Kd, often an IC50 or EC50 that approximates it; bounds were set here for any values at or beyond the usual limits of such assays
# ASSAY CONDITIONS: source organism: Shigella flexneri 5 str. 8401
ENDPOINT NAME: Kd (nM)
Expressed in nM, but write only the number.

Query: Given HLTPAQLSM , state its recorded Kd.
Result: 301

###

# ASSAYED TARGET: HLA-B*27:05
# ASSAY METHOD TEXT: IEDB peptide-MHC binding, purified MHC/direct/fluorescence; filed as Kd, often an IC50 or EC50 that approximates it; bounds were set here for any values at or beyond the usual limits of such assays
# ASSAY CONDITIONS: source organism: Escherichia coli
pKd: −log10 of the molar value.
ENDPOINT NAME: pKd

Query: GET /values?readout=pKd&system=HLA-B*27:05&item= TVANNPDDK
Result: ≤ 4.70

Hello, the source for this data is the Immune Epitope Database (IEDB), in case you need it.
